B1: HDV Ribozyme (parent)
chain: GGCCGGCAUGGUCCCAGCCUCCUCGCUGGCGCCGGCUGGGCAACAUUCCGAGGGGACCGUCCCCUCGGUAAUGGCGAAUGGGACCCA

# Variants of: B1
# PROTOCOL TEXT: self-cleavage, relative activity (ratio to wild type); higher = more cleavage; co-transcriptional
For each of the variants below, state its self-cleavage.
Give only the figure.

Prompt line: Quickly give me recorded self-cleavage for G11C G73U
Response line: 0.16

Prompt line: Quickly give me recorded self-cleavage for A56U U69C
Response line: 0.733

Prompt line: Quickly give me recorded self-cleavage for G2U C32G
Response line: 0

Prompt line: Quickly give me recorded self-cleavage for G50U A51U
Response line: 1.05

Prompt line: Quickly give me recorded self-cleavage for G10U C86A
Response line: 0.712

Prompt line: Quickly give me recorded self-cleavage for G28U U47C
Response line: 0.297

Prompt line: Quickly give me recorded self-cleavage for U23C C57A
Response line: 0.849

Prompt line: Quickly give me recorded self-cleavage for C4A G11A
Response line: 0.0183

Prompt line: Quickly give me recorded self-cleavage for C14A U23A
Response line: 0.575

Prompt line: Quickly give me recorded self-cleavage for C13U C57U
Response line: 0.853

Prompt line: Quickly give me recorded self-cleavage for A42G G67A
Response line: 0.435
